# testedSystem: UniProt:P35377
# Sequence (P35377 whole entry): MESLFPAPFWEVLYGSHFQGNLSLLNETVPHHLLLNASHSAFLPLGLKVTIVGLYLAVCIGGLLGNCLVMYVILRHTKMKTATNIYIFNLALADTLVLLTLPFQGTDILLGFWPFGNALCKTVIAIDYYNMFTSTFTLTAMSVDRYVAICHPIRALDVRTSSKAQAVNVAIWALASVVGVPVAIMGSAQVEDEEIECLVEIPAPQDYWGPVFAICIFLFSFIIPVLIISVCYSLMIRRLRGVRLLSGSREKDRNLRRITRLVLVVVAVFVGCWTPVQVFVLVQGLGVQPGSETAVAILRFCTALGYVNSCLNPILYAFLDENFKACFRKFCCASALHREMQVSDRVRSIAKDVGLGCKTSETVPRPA
# assayMethodText: Maximal inhibition of electrically evoked contraction of mouse vas deferens
# Type: functional, tissue-based
Numbered stars: 1 amine (or outer) side, 2 acyl side, 3 side chain; on linkers, the order of the positions; unused ones are H or OH. Square brackets hold non-standard residues; d marks the D form. Peptide text beside a SMILES is read from it. * marks the point of attachment. X1 = N[C@@H](Cc1ccccc1)CN(CC(=O)[*:2])[*:1]; Phe(4-F) = N[C@@H](Cc1ccc(F)cc1)C(=O)O; N(NH2)2 = NN(N)*; NHNH2 = NN*
observedProperty: Emax (%)
Kindly provide the numeric value in % only, without the unit symbol.

| compound | Emax, % |
| --- | --- |
| C[C@H](NC(=O)CNC(=O)[C@@H](NC(=O)[C@H](Cc1ccc(F)cc1)NC(=O)CNC(=O)CNC(=O)[C@@H](N)Cc1ccccc1)[C@@H](C)O)C(=O)N[C@@H](CCCN=C(N)N)C(=O)N[C@@H](CCCCN)C(=O)N[C@@H](CO)C(=O)N[C@@H](C)C(=O)N[C@@H](CCCN=C(N)N)C(=O)N[C@@H](CCCCN)C(=O)N[C@@H](CCCN=C(N)N)C(=O)N[C@@H](CCCCN)C(=O)N[C@@H](CC(N)=O)C(=O)N[C@@H](CCC(=O)N(N)N)C(=O)NN | 94 |

Suppose we examine the compound C[C@H](NC(=O)CNC(=O)[C@@H](NC(=O)[C@H](Cc1ccccc1)NC(=O)CNC(=O)CNC(=O)[C@@H](N)Cc1ccccc1)[C@@H](C)O)C(=O)N[C@@H](CCCN=C(N)N)C(=O)N[C@@H](CCCCN)C(=O)N[C@@H](CO)C(=O)N[C@@H](C)C(=O)N[C@@H](CCCN=C(N)N)C(=O)N[C@@H](CCCCN)C(=O)N[C@@H](CCCN=C(N)N)C(=O)N[C@@H](CCCCN)C(=O)N[C@@H](CC(N)=O)C(=O)N[C@@H](CCC(=O)N(N)N)C(=O)NN ; what Emax value has been reported?
95

Item: C[C@H](NC(=O)CNC(=O)[C@@H](NC(=O)[C@H](Cc1ccc(F)cc1)NC(=O)CNC(=O)CNC[C@@H](N)Cc1ccccc1)[C@@H](C)O)C(=O)N[C@@H](CCCN=C(N)N)C(=O)N[C@@H](CCCCN)C(=O)N[C@@H](CO)C(=O)N[C@@H](C)C(=O)N[C@@H](CCCN=C(N)N)C(=O)N[C@@H](CCCCN)C(=O)N[C@@H](CCCN=C(N)N)C(=O)N[C@@H](CCCCN)C(=O)N[C@@H](CC(N)=O)C(=O)N[C@@H](CCC(=O)N(N)N)C(=O)NN (H-[X1]G[Phe(4-F)]TGARKSARKRKNE(N(NH2)2)-NHNH2)
53

Item: CC(C)C[C@H](NC(=O)[C@H](CCCCN)NC(=O)[C@H](CCCNC(=N)N)NC(=O)[C@H](C)NC(=O)[C@H](CO)NC(=O)[C@H](CCCCN)NC(=O)[C@H](CCCNC(=N)N)NC(=O)[C@H](C)NC(=O)CNC(=O)[C@@H](NC(=O)[C@H](Cc1ccccc1)NC(=O)CNC(=O)CNC(=O)[C@@H](N)Cc1ccccc1)[C@@H](C)O)C(=O)N[C@@H](C)C(=O)N[C@@H](CC(N)=O)C(=O)N[C@@H](CCC(N)=O)C(=O)O
95

Item: CC(C)C[C@H](NC(=O)[C@H](CCCCN)NC(=O)[C@H](CCCN=C(N)N)NC(=O)[C@H](C)NC(=O)[C@H](CO)NC(=O)[C@H](CCCCN)NC(=O)[C@H](CCCN=C(N)N)NC(=O)[C@H](C)NC(=O)CNC(=O)[C@@H](NC(=O)[C@H](Cc1ccc(F)cc1)NC(=O)CNC(=O)CNC(=O)[C@@H](N)Cc1ccccc1)[C@@H](C)O)C(=O)N[C@@H](C)C(=O)N[C@@H](CC(N)=O)C(=O)N[C@@H](CCC(N)=O)C(N)=O
92

Entry source: ChEMBL document CHEMBL1142699
